- Tested on: GLXMA
- experimental.details: Pre-emergence damage to crop plants
- Format: in vivo, Glycine max
- condition.set: 80 g a.i./ha, comparative experiment
Damage to GLXMA values for the compounds below.
Dear colleague, please send the value followed by its unit.

Guide cases for Damage to GLXMA, answers given:
compound	measurement
C[S+]([O-])c1c(C(F)F)ccc(C(=O)Nc2nnco2)c1Cl (stereo in doubt) [Example I-2]	30%
Cc1c(C(=O)Nc2nnco2)ccc(C(F)(F)F)c1[S+](C)[O-] (racemic) [1-144 from WO2012126932, reference compound]	80%

Kindly consider the entry below.
Q: Suppose we examine the compound Cc1nnc(NC(=O)c2ccc(C(F)(F)F)c([S+]([O-])C3CC3)c2Cl)o1 (stereo in doubt) [Example I-4] ; what Damage to GLXMA value has been reported?
Result: 80%
